protocol_notes: Membrane permeability test using Caco-2 cells with preincubation
Format: in vitro ADME
condition_context: Caco-2; preincubation 20 to 24 hours; Apical FaSSIF/HBSS pH 6.0, Basal HBSS 4% BSA pH 7.4; 180 minutes; read-out: Caco2 Papp
Positions of bridges follow the written chain, without caps; N, C: chain ends. Non-standard residues stand in square brackets, D forms with d. Residues, ends and D or L forms follow the SMILES beside them. *: point of attachment. NMeF = CN[C@@H](Cc1ccccc1)C(=O)O; hPhe = N[C@@H](CCc1ccccc1)C(=O)O; NMeD = CN[C@@H](CC(=O)O)C(=O)O; NMeL = CN[C@@H](CC(C)C)C(=O)O; NMeV = CN[C@H](C(=O)O)C(C)C; NMeA = CN[C@@H](C)C(=O)O; Piperidide = C1CCN(*)CC1; Sar = CNCC(=O)O
readout_label: Papp A→B (×10⁻⁶ cm/s)

{"columns": ["compound", "readout_label", "units", "readout_number"],
 "data": [
  ["CC[C@H](C)[C@@H]1NC(=O)CN(C)C(=O)C[C@@H](C(=O)N2CCCCC2)N(C)C(=O)[C@H](Cc2ccccc2)N(C)C(=O)[C@H](CC(C)C)N(C)C(=O)[C@H]([C@@H](C)O)NC(=O)[C@H](CC(C)C)N(C)C(=O)[C@H](CC(C)C)NC(=O)[C@H](C(C)C)N(C)C(=O)[C@H](C)N(C)C(=O)[C@H](CC(C)C)N(C)C(=O)[C@H](CCc2ccccc2)NC(=O)[C@H](CC(C)C)N(C)C1=O [pd165] ([Sar]I[NMeL][hPhe][NMeL][NMeA][NMeV]L[NMeL]T[NMeL][NMeF][NMeD]-Piperidide; lactam N-13)", "Papp A→B", "×10⁻⁶ cm/s", 0.1],
  ["CC[C@H](C)[C@@H]1NC(=O)[C@@H]2CCCN2C(=O)[C@H](C(C)C)N(C)C(=O)[C@H](CC(C)C)N(C)C(=O)C[C@@H](C(=O)N2CCCCC2)N(C)C(=O)[C@H](CC(C)C)NC(=O)[C@H](CC(C)C)N(C)C(=O)[C@H](C)NC(=O)[C@@H]2CCCN2C(=O)[C@H]([C@@H](C)O)NC(=O)[C@H](CC(C)C)N(C)C(=O)CN(C)C(=O)[C@H](Cc2ccccc2)N(C)C1=O [pd164] ([NMeL][NMeV]PI[NMeF][Sar][NMeL]TPA[NMeL]L[NMeD]-Piperidide; lactam N-13)", "Papp A→B", "×10⁻⁶ cm/s", 0.06]
]}

====

protocol_notes: Metabolic stability test: liver microsomal stability assay
Format: in vitro ADME, mouse
condition_context: male, pH 7.4; mouse liver microsomes 0.5 mg protein/mL, compound 1 µM, presence of NADPH; read-out: Mouse Hepatic Microsome CLh,int NADPH(+)
Starred links: 1 amine or outer side, 2 acyl side, 3 side chain; linkers in the order of their positions; H or OH if unused. Positions of bridges follow the written chain, without caps; N, C: chain ends. Non-standard residues stand in square brackets, D forms with d. Residues, ends and D or L forms follow the SMILES beside them. *: point of attachment. NMedβ3hAla = C[C@H](CC(=O)[*:2])N(C)[*:1]; NMeF = CN[C@@H](Cc1ccccc1)C(=O)O; NMeGABA = CN(CCCC(=O)[*:2])[*:1]; NMeI = CC[C@H](C)[C@H](NC)C(=O)O; hPhe = N[C@@H](CCc1ccccc1)C(=O)O; NMeβAla = CN(CCC(=O)[*:2])[*:1]; NMeD = CN[C@@H](CC(=O)O)C(=O)O; NMeL = CN[C@@H](CC(C)C)C(=O)O; NMeV = CN[C@H](C(=O)O)C(C)C; d(β3hA) = C[C@@H](N)CC(=O)O; NMeAbu = CC[C@H](NC)C(=O)O; NMeA = CN[C@@H](C)C(=O)O; Piperidide = C1CCN(*)CC1; Abu = CC[C@H](N)C(=O)O; Sar = CNCC(=O)O; tBu = CC(C)(C)*
Below, each entry is listed alongside its reported microsomal CLint at 1 µM.
readout_label: microsomal CLint at 1 µM (µL/min/mg)

{"columns": ["compound", "readout_number"],
 "data": [
  ["CC[C@@H]1NC(=O)[C@H](CC(C)C)N(C)C(=O)C[C@@H](C(=O)N2CCCCC2)N(C)C(=O)[C@H](C(C)C)NC(=O)[C@H](CC(C)C)N(C)C(=O)[C@H](C)NC(=O)[C@H](CC)N(C)C(=O)[C@H](C(C)C)NC(=O)[C@H](CC(C)C)N(C)C(=O)[C@H](C)N(C)C(=O)[C@H](Cc2ccccc2)N(C)C(=O)[C@H](C(C)C)NC(=O)[C@@H]2CCCN2C(=O)[C@H](C(C)C)N(C)C1=O [pd078] ([NMeL][Abu][NMeV]PV[NMeF][NMeA][NMeL]V[NMeAbu]A[NMeL]V[NMeD]-Piperidide; lactam N-14)", 28.3],
  ["CC[C@@H]1NC(=O)[C@H](CC(C)C)N(C)C(=O)[C@H](COC(C)(C)C)NC(=O)[C@H]([C@@H](C)CC)N(C)C(=O)[C@H](CCc2ccccc2)NC(=O)[C@H](Cc2ccccc2)N(C)C(=O)[C@H](C(C)C)NC(=O)[C@H](CC(C)C)N(C)C(=O)[C@H](CC(C)C)NC(=O)CCN(C)C(=O)C[C@@H](C)N(C)C(=O)CN(C)C(=O)[C@H](CC(C)C)N(C)C(=O)[C@@H]2CCCN2C1=O [pd065] (cyclo([Abu]P[NMeL][Sar][NMedβ3hAla][NMeβAla]L[NMeL]V[NMeF][hPhe][NMeI]S(tBu)[NMeL]))", 41.7],
  ["CC[C@H]1C(=O)N(C)[C@@H](C)C(=O)N(C)[C@@H](C(C)C)C(=O)N[C@H](C)CC(=O)N[C@H](C(C)C)C(=O)N(C)[C@@H](CC(C)C)C(=O)N[C@@H](CC(C)C)C(=O)N(C)[C@@H](C(C)C)C(=O)N(C)[C@@H](CC(C)C)C(=O)N(C)CC(=O)N[C@@H]([C@@H](C)O)C(=O)N(C)[C@@H](Cc2ccccc2)C(=O)N[C@@H](COC(C)(C)C)C(=O)N1C [pd131] (cyclo(L[NMeV][NMeL][Sar]T[NMeF]S(tBu)[NMeAbu][NMeA][NMeV][d(β3hA)][dV][NMeL]))", 17.8],
  ["CC[C@H](C)[C@@H]1NC(=O)[C@H](C)NC(=O)[C@H](CC(C)C)N(C)C(=O)[C@H](COC(C)(C)C)NC(=O)[C@H](CC(C)C)N(C)C(=O)[C@@H]2CCCN2C(=O)[C@H](Cc2ccccc2)NC(=O)[C@H]([C@@H](C)CC)N(C)C(=O)[C@H](CC(C)C)N(C)C(=O)CCCN(C)C(=O)C[C@@H](C(=O)N2CCCCC2)NC(=O)[C@H](Cc2ccccc2)N(C)C(=O)[C@H](CC)N(C)C1=O [pd098] ([NMeGABA][NMeL][NMeI]FP[NMeL]S(tBu)[NMeL]AI[NMeAbu][NMeF]D-Piperidide; lactam N-13)", 44.5],
  ["CC[C@@H]1NC(=O)[C@H](Cc2ccccc2)N(C)C(=O)[C@H]([C@@H](C)CC)NC(=O)[C@H](CC(C)C)N(C)C(=O)[C@H](CC(C)C)NC(=O)CCN(C)C(=O)C[C@@H](C(=O)N2CCCCC2)NC(=O)[C@H](C(C)C)NC(=O)[C@H](CC(C)C)N(C)C(=O)[C@H](C)N(C)C(=O)[C@H]([C@@H](C)O)NC(=O)[C@H](CC(C)C)N(C)C(=O)[C@H](COC(C)(C)C)NC(=O)[C@H](Cc2ccccc2)N(C)C1=O [pd021] ([NMeβAla]L[NMeL]I[NMeF][Abu][NMeF]S(tBu)[NMeL]T[NMeA][NMeL]VD-Piperidide; lactam N-14)", 37.1],
  ["CC[C@@H]1NC(=O)[C@H](CC(C)C)N(C)C(=O)[C@H](C)NC(=O)[C@@H]2CCCN2C(=O)[C@H](CC)N(C)C(=O)[C@H](CC(C)C)N(C)C(=O)CN(C)C(=O)[C@H](Cc2ccccc2)N(C)C(=O)[C@H]([C@@H](C)CC)NC(=O)CCN(C)C(=O)[C@H](C(C)C)N(C)C(=O)[C@H](COC(C)(C)C)NC(=O)[C@H](CC(C)C)N(C)C(=O)C[C@@H](C(=O)N2CCCCC2)N(C)C1=O [pd083] ([NMeL]S(tBu)[NMeV][NMeβAla]I[NMeF][Sar][NMeL][NMeAbu]PA[NMeL][Abu][NMeD]-Piperidide; lactam N-14)", 11.4],
  ["CC[C@@H]1NC(=O)CCN(C)C(=O)C[C@@H](C)NC(=O)[C@H](CC(C)C)N(C)C(=O)[C@H]([C@@H](C)O)NC(=O)[C@H](C)N(C)C(=O)[C@H]([C@@H](C)CC)NC(=O)[C@H](CCc2ccccc2)NC(=O)[C@H](CC(C)C)N(C)C(=O)[C@H](C)N(C)C(=O)[C@H](Cc2ccccc2)N(C)C(=O)[C@@H]2CCCN2C(=O)[C@H]([C@@H](C)CC)NC(=O)[C@H](CC(C)C)N(C)C1=O [pd051] (cyclo([Abu][NMeL]IP[NMeF][NMeA][NMeL][hPhe]I[NMeA]T[NMeL][d(β3hA)][NMeβAla]))", 24.6],
  ["CC[C@@H]1NC(=O)[C@H](CC(C)C)N(C)C(=O)[C@H]([C@@H](C)CC)NC(=O)CN(C)C(=O)C[C@@H](C)NC(=O)[C@H](C(C)C)N(C)C(=O)[C@H](COC(C)(C)C)NC(=O)[C@H](CC(C)C)N(C)C(=O)[C@H](C)NC(=O)[C@H](Cc2ccccc2)N(C)C(=O)[C@H](CC(C)C)NC(=O)CN(C)C(=O)[C@H]([C@@H](C)O)NC(=O)[C@H](CC(C)C)N(C)C1=O [pd010] (cyclo(A[NMeL]S(tBu)[NMeV][d(β3hA)][Sar]I[NMeL][Abu][NMeL]T[Sar]L[NMeF]))", 59.7]
]}
